test system: HT29; test: cells; type: cell-based; conditions: Homo sapiens, HT-29; HT29; 48 hours exposure; total growth inhibition (cytostatic effect); read-out: TGI
I would appreciate it if you labelled entries Y when IC (total growth inhibition) is 0.4 µM or higher, otherwise N.

# Compound, Class Label
data = [
    ("C/C=C\\C[C@H](O)C/C=C\\NC(=O)[C@@H](NC(=O)C#C/C=C\\C(C)=C\\[C@H](C)[C@@H]1CC=C(OC)C(=O)O1)C(C)(C)C", "N"),
    ("COC1=CC[C@@H]([C@@H](C)/C=C(C)/C=C\\C#CC(=O)N[C@H](C(=O)N/C=C\\C[C@H](C/C=C(\\C)Cl)O[Si](C)(C)C(C)(C)C)C(C)(C)C)OC1=O [Compound 64a]", "Y"),
    ("COC1=CC[C@@H]([C@@H](C)/C=C\\C=C/C(=O)N[C@H](C(=O)N/C=C\\C[C@H](C/C=C(\\C)Cl)OC(N)=O)C(C)(C)C)OC1=O", "Y"),
    ("CC#CC[C@H](O)C/C=C\\NC(=O)[C@@H](NC(=O)\\C=C/C=C\\C(C)=C\\[C@H](C)[C@@H]1CC=C(OC)C(=O)O1)C(C)(C)C", "N"),
    ("C/C=C\\C[C@@H](C/C=C\\NC(=O)[C@@H](NC(=O)C#C/C=C\\C(C)=C\\[C@H](C)[C@@H]1CC=C(OC)C(=O)O1)C(C)(C)C)OC(N)=O", "Y"),
    ("COC1=CC[C@@H]([C@@H](C)/C=C(C)/C=C\\C#CC(=O)N[C@H](C(=O)N/C=C\\C[C@H](C/C=C(\\C)Cl)OC(N)=O)C(C)(C)C)OC1=O [Compound 66a]", "N"),
    ("COC1=CC[C@@H]([C@@H](C)/C=C(C)/C=C\\C#CCCC(=O)N[C@H](C(=O)N/C=C\\C[C@H](C/C=C(\\C)Cl)OC(N)=O)C(C)(C)C)OC1=O", "N"),
    ("COC1=CC[C@@H]([C@@H](C)/C=C(C)/C=C\\C#CC(=O)N[C@H](C(=O)N/C=C\\C[C@@H](O)C/C=C(\\C)Cl)C(C)C)OC1=O [Compound 65b]", "Y"),
    ("C/C=C\\C[C@H](O)C/C=C\\NC(=O)[C@@H](NC(=O)/C=C\\C#C/C(C)=C/[C@H](C)[C@@H]1CC=C(OC)C(=O)O1)C(C)(C)C", "Y"),
    ("COC1=CC[C@@H]([C@@H](C)/C=C(C)/C=C\\C=C/C(=O)N[C@H](C(=O)N/C=C\\C[C@H](C/C=C(\\C)Cl)OC(N)=O)C(C)(C)C)O[C@H]1O", "N"),
]

Here is the next item to consider.
Data request: Form field: IC (total growth inhibition) at least 0.4 µM? Entry: COC1=CC[C@@H]([C@@H](C)/C=C(C)/C=C\C#CCCC(=O)N[C@H](C(=O)N/C=C\C[C@@H](O)C/C=C(\C)Cl)C(C)(C)C)OC1=O
Data returned: Y
